Tested on: fibrin-induced microglia activation
assay_details: Image-based assay of fibrin-induced microglia activation (HTS and dose response)
Type: cell-based, rat
test_settings: primary microglia HTS, fibrin stimulation, cell size >800 μm2 as marker of activation
assay_metric: Fibrin % inhibition (%)
Write the number in % without appending the unit.

Enquiry: Under fibrin-induced microglia activation: report Fibrin % inhibition of CC1=C(C/C=C(\C)CCC[C@H](C)CCC[C@H](C)CCCC(C)C)C(=O)c2ccccc2C1=O [Phylloquinone] .
Return: 4

Enquiry: Given O=[N+]([O-])c1cc([As](=O)(O)O)ccc1O [Roxarsone] , report its Fibrin % inhibition on fibrin-induced microglia activation.
Return: −18

Enquiry: Report measured Fibrin % inhibition on fibrin-induced microglia activation; entry: C[C@@](Cc1ccc(O)c(O)c1)(NN)C(=O)O [S-(−)-carbidopa, Carbidopa]
Return: −91

Enquiry: Provide fibrin-induced microglia activation Fibrin % inhibition reading for CC[C@H](C)C(=O)O[C@H]1C[C@H](O)C=C2C=C[C@H](C)[C@H](CC[C@@H](O)C[C@@H](O)CC(=O)O)[C@H]21 [Pravastatin Sodium] .
Return: 21

Enquiry: Enter measured Fibrin % inhibition, system fibrin-induced microglia activation, for the compound shown: CC[C@H](C)C(=O)O[C@H]1C[C@H](O)C=C2C=C[C@H](C)[C@H](CC[C@@H](O)C[C@@H](O)CC(=O)O)[C@H]21 [Pravastatin]
Return: 10

---

System: fibrin- and LPS-induced microglia activation
assay_details: cells
Assay type: cell-based, rat
test_settings: Table 1; screen at 10 μM
Where a name gives a salt, the structure may show the parent alone.
assay_metric: Quadrant (FIG. 5b)

Guide cases for Quadrant (FIG. 5b), answers given:
| molecule | assay_metric | assay_result |
| --- | --- | --- |
| CC(=O)O[C@]1(C(C)=O)CC[C@H]2[C@@H]3C[C@H](C)C4=CC(=O)CC[C@]4(C)[C@H]3CC[C@@]21C [Medroxyprogesterone acetate, reference compound] | Quadrant (FIG. 5b) | Q2 |
| O=C(OOC(=O)c1ccccc1)c1ccccc1 [Benzoyl peroxide, reference compound] | Quadrant (FIG. 5b) | Q2 |
| O=C1[O][Pt]2([NH][C@@H]3CCCC[C@H]3[NH]2)[O]C1=O [Oxaliplatin, reference compound] | Quadrant (FIG. 5b) | Q3 |
| CC(=O)[C@@]12O[C@](C)(c3ccccc3)O[C@@H]1C[C@H]1[C@@H]3CCC4=CC(=O)CC[C@]4(C)[C@H]3CC[C@@]12C [Algestone acetophenide, reference compound] | Quadrant (FIG. 5b) | Q2 |
| Cc1cc(NC(=O)C2=C(O)c3ccccc3S(=O)(=O)N2C)no1 [Isoxicam, reference compound] | Quadrant (FIG. 5b) | Q3 |
| C1CCC(C(CC2CCCCN2)C2CCCCC2)CC1 (stereo not drawn) [Perhexiline maleate, reference compound] | Quadrant (FIG. 5b) | Q2 |
| CC(=O)OCC(=O)[C@@]1(O)[C@H](OC(C)=O)C[C@H]2[C@@H]3CCC4=CC(=O)C=C[C@]4(C)[C@@]3(F)[C@@H](O)C[C@@]21C [Triamcinolone diacetate, reference compound] | Quadrant (FIG. 5b) | Q2 |
| C=C(CC)C(=O)c1ccc(OCC(=O)O)c(Cl)c1Cl [Ethacrynic acid, reference compound] | Quadrant (FIG. 5b) | Q3 |
| C=N[C@@H](C(=O)N[C@@H]1C(=O)N2[C@@H]1SC(C)(C)[C@@H]2C(=O)O)c1ccccc1 [Metampicillin sodium, reference compound] | Quadrant (FIG. 5b) | Q3 |
| S=C=NCc1ccccc1 [Benzyl isothiocyanate, reference compound] | Quadrant (FIG. 5b) | Q2 |

Enquiry: Tell us which Quadrant (FIG. 5b) value is on record for CCCCCCc1ccc(O)cc1O.Nc1c2ccccc2nc2ccccc12 [Acrisorcin, reference compound]
Return: Q2

Enquiry: Return the recorded Quadrant (FIG. 5b) value; entry: [H]/N=C(/NCCCCC)N/N=C/c1c[nH]c2ccc(OC)cc12 [Tegaserod maleate, reference compound]
Return: Q2
